Test system: Plasmodium falciparum
measurement.protocol: GSK_TCMDC: Inhibition of Plasmodium falciparum 3D7 in whole red blood cells, using parasite LDH activity as an index of growth. Test compounds present at 2uM
Format: functional
Entries and their Inhibition values follow.
Give a bare numeral; the unit % is implied.

{"compound": "COc1ccc(Cn2ccc3c4c(N)nc(N)nc4ccc32)cc1", "display.unit": "%", "endpoint.result": 100}
{"compound": "Cc1c(Cl)ccc2sc(N3CCN(C(=O)c4ccc([N+](=O)[O-])o4)CC3)nc12", "display.unit": "%", "endpoint.result": 96}
{"compound": "c1csc(-c2nc(NCC3CCCO3)ncc2-c2ccsc2)n1 (stereo not given)", "display.unit": "%", "endpoint.result": 89}
{"compound": "Cc1nn(-c2ccccc2)c2nc(-c3ccccc3)cc(C(=O)N3CCOCC3)c12", "display.unit": "%", "endpoint.result": 93}

Q) Give Inhibition for the following compound: `COc1ccc2[nH]c(/C=C/c3cccc4ccc(C)nc34)nc2c1`
A) 98

Q) Give Inhibition for the following compound: `CC(C)N(CC(=O)c1ccc(O)c(C(=O)O)c1)Cc1ccccc1.Cl`
A) 97

Q) Give Inhibition for the following compound: CCC(C)c1ccc(NC(=O)C(C)c2ccc([N+](=O)[O-])cc2)cc1 (stereo not given)
A) 100

###

System: Plasmodium falciparum
measurement.protocol: GSK_TCMDC: Inhibition of Plasmodium falciparum 3D7 in whole red blood cells, using parasite LDH activity as an index of growth. Test compounds present at 2uM
Format: functional
Entries and their Inhibition values follow.
Give a bare numeral; the unit % is implied.

{"compound": "O=S(=O)(Nc1cccc(F)c1CNCc1ccccn1)c1ccc(Cl)c(Cl)c1", "Inhibition, %": 92}
{"compound": "CC(C)COc1ccc(Cl)cc1Nc1nc(-c2nc3ccccc3[nH]2)cs1.Cl", "Inhibition, %": 96}
{"compound": "CCCCCCC(N)c1ccc(OCCCOc2ccc(C(N)CCCCCC)cc2)cc1.Cl (centres undefined)", "Inhibition, %": 88}
{"compound": "COCCN(C)CCCOc1cc2c(cc1OC)ncn2-c1cc(OCc2ccccc2C(F)(F)F)c(C(N)=O)s1.Cl", "Inhibition, %": 98}
{"compound": "CC(C)c1ccc(-c2noc(SCC(=O)N(C)c3ccc(F)cc3)n2)cc1", "Inhibition, %": 84}
{"compound": "COCCNCC(O)Cn1c2ccc(Cl)cc2c2cc(Cl)ccc21 (centres undefined)", "Inhibition, %": 95}
{"compound": "O=C(NC1CCC(N2CCC(c3ccccc3C(F)(F)F)CC2)CC1)c1cc2ccccc2[nH]1 (centres undefined)", "Inhibition, %": 100}
{"compound": "COc1cccc(C(=O)Nc2ccc(Nc3nc(C)cc(N(C)C)n3)cc2)c1OC", "Inhibition, %": 90}
{"compound": "COc1ccc(OCCON)cc1.Cl", "Inhibition, %": 98}
{"compound": "Cc1c(-c2ccc3c(c2)C(NCCCN2CCCCC2)CC3)cnc(N)c1C.Cl (centres undefined)", "Inhibition, %": 97}

Now for a further compound.
Q) Give Inhibition for the following compound: `Br.Oc1ccc(CCNCCCCCCNCCc2ccc(Cl)c(Cl)c2)cc1O`
A) 100

###

System: Plasmodium falciparum
measurement.protocol: GSK_TCMDC: Inhibition of Plasmodium falciparum 3D7 in whole red blood cells, using parasite LDH activity as an index of growth. Test compounds present at 2uM
Assay type: functional
measurement.name: Inhibition (%)
Give a bare numeral; the unit % is implied.

{"compound": "COc1ccc2ncc(F)c(CCN3CC[C@@H](CNCc4nc5c(cc4C)SCC(=O)N5)C3)c2n1.Cl", "display.unit": "%", "Inhibition": 91}
{"compound": "COc1ccc2c(c1)C(C)(CCCN(C)C)C(=O)N2C.O=C(O)C(=O)O (centres undefined)", "display.unit": "%", "Inhibition": 93}

Q) Give Inhibition for the following compound: `CCOc1cc(C(=O)NCc2cccc(C(F)(F)F)c2)ccc1-c1nc2cc(Cl)ccc2[nH]1`
A) 88

Q) Give Inhibition for the following compound: `Nc1nccc2ccc(-c3ccc4nccn4c3)cc12.O=C(O)C(F)(F)F`
A) 100

Q) Give Inhibition for the following compound: `Cc1ccc(O)c(Nc2c3c(c(C#N)c4nc5ccccc5n24)CCC3)c1`
A) 85

Q) Give Inhibition for the following compound: `Cc1cnc(C(=O)Nc2cccc(-c3csc(-c4nc5ccccc5[nH]4)c3)c2)cn1`
A) 98

Q) Give Inhibition for the following compound: `Cc1cc(F)ccc1-c1nc(NCCCNCCc2ccccc2)nc2c1ccc(=O)n2-c1c(F)cccc1F.O=C(O)C(F)(F)F`
A) 100

Q) Give Inhibition for the following compound: Cc1cc(CN2CCC(N3CC(c4ccccc4)(c4ccccc4)OCC3=O)C2)ccc1O.O=C(O)C(F)(F)F (centres undefined)
A) 89

Q) Give Inhibition for the following compound: `Nc1nc(N)c2c(ccc3c2ccn3CCCF)n1`
A) 94

###

Tested on: Plasmodium falciparum
measurement.protocol: GSK_TCMDC: Inhibition of Plasmodium falciparum Dd2 in whole red blood cells, using parasite LDH activity as an index of growth. Test compounds present at 2uM
Assay type: functional
# label = Satisfied if Inhibition < 80% else Not satisfied

# count of solved cases: 7
{"molecule": "O=C(NC1CC1)c1ccc(N2CCCCN2CCc2ccccc2)c(C(F)(F)F)c1.O=C(O)C(F)(F)F", "tested.system": "Plasmodium falciparum", "assigned.category": "Not satisfied"}
{"molecule": "CC(=O)Nc1ccc(OCCCCN(Cc2ccccc2OC(F)(F)F)c2ccc(C(F)(F)F)c(C#N)c2)c(Cl)c1", "tested.system": "Plasmodium falciparum", "assigned.category": "Not satisfied"}
{"molecule": "CN1CCC(C(=O)Nc2ccc(-c3ccc(-c4nc5ccccc5[nH]4)cc3)cc2)CC1", "tested.system": "Plasmodium falciparum", "assigned.category": "Not satisfied"}
{"molecule": "O=C1C2C3SC(c4c3ccc3ccccc43)C2C(=O)N1c1ccccc1 (stereo not drawn)", "tested.system": "Plasmodium falciparum", "assigned.category": "Satisfied"}
{"molecule": "CCc1cn2c3c(cc(C(=O)N[C@@H](Cc4ccccc4)[C@H](O)CNC4CCCC4)cc13)N(C)S(=O)(=O)CC2", "tested.system": "Plasmodium falciparum", "assigned.category": "Not satisfied"}
{"molecule": "CCNc1cc(C(=O)N[C@@H](Cc2ccccc2)[C@H](O)CNCCC(C)(C)C)c(F)c(N2CCCCS2(=O)=O)c1.O=CO", "tested.system": "Plasmodium falciparum", "assigned.category": "Not satisfied"}
{"molecule": "COc1ccc(C2CCN(CCCCNC(=O)c3ccc(NC(=O)c4ccc(Cl)cc4)cc3)CC2)c(C)c1.Cl", "tested.system": "Plasmodium falciparum", "assigned.category": "Satisfied"}

Now consider a different molecule.
Q) Hello, I'm reviewing records and need to know if Inhibition of O=C(Nc1ccc(Cl)cc1)N(CC1CC2CCC(C1)N2Cc1ccc(C(F)(F)F)cc1)c1ccc(N2CCOCC2)c(F)c1 (stereo not drawn) is below 80%. Could you check?
A) Satisfied

###

Tested on: HepG2
measurement.protocol: GSK_TCMDC: Percent inhibition of human HepG2 cell line. Test compounds present at 10uM.
Assay type: functional
# label = class 1 if Inhibition < 10% else class 0

{"molecule": "COc1ccc(-c2ccc(CNC(=O)c3ccc(C#N)cc3)c(F)c2)cc1CN1CCCN(C)CC1.O=C(O)C(F)(F)F", "assigned.category": "class 1"}
{"molecule": "Cc1cc2c(cc1C(F)(F)F)N(C(=O)Nc1cnc(OCCN(C)C)c(C(F)(F)F)c1)CC2", "assigned.category": "class 0"}
{"molecule": "O=C(NC1CCCc2ccccc21)[C@@H]1CCCN1C(=O)c1ccc(O)c(-c2ccc(Cl)c(Cl)c2)c1 (stereo partly specified)", "assigned.category": "class 1"}
{"molecule": "CCCCN(CCCC)CCCCNc1c2ccc(Cl)cc2nc2ccc(OC)cc12.Cl", "assigned.category": "class 0"}
{"molecule": "CS(=O)(=O)O.FC(F)(F)COc1c(CNCCCCCCNCc2ccc3ccccc3c2OCC(F)(F)F)ccc2ccccc12", "assigned.category": "class 0"}
{"molecule": "COc1ccc(CCn2c(=N)c(C(=O)NCc3cccnc3)cc3c(=O)n4ccccc4nc32)cc1", "assigned.category": "class 0"}
{"molecule": "COc1ccc(-c2cc(-c3ccc(S(C)(=O)=O)cc3)cnc2N)cn1", "assigned.category": "class 1"}
{"molecule": "CN(C)Cc1cc(Nc2ccnc3cc(Cl)ccc23)ccc1O.Cl", "assigned.category": "class 0"}

Q) Hello, I'm reviewing records and need to know if Inhibition of `O=C(Nc1ccc(CN2CCOCC2)cc1)c1ccc(-c2cc(Cl)ccc2Cl)o1` is below 10%. Could you check?
A) class 1

Q) Hello, I'm reviewing records and need to know if Inhibition of `COc1cc2nc(N3CCC(CCCC4CCNCC4)CC3)nc(NCc3ccccn3)c2cc1OC.O=C(O)C(F)(F)F` is below 10%. Could you check?
A) class 1

Q) Hello, I'm reviewing records and need to know if Inhibition of `Cc1ccc(NC(=O)c2ccc(Cl)cc2)cc1-c1ccc(C(=O)Nc2ccncc2)cc1` is below 10%. Could you check?
A) class 0

Q) Hello, I'm reviewing records and need to know if Inhibition of `CN(C)CCCn1cncc1-c1ccc2ncnc(Nc3ccc4c(cnn4Cc4ccccc4)c3)c2c1` is below 10%. Could you check?
A) class 0

Q) Hello, I'm reviewing records and need to know if Inhibition of `COc1ccc(-c2cnc(NCc3ccccc3)nc2)cc1CNC1CCN(C)CC1.O=C(O)C(F)(F)F` is below 10%. Could you check?
A) class 0
